- System Under Test: IRβ (unphosphorylated beta subunit of insulin receptor) (Homo sapiens, UniProt P06213)
- Construct: beta subunit, commercial recombinant protein; unphosphorylated; immobilised on CM5 chip
- Sequence (P06213 763-1382 limits assumed): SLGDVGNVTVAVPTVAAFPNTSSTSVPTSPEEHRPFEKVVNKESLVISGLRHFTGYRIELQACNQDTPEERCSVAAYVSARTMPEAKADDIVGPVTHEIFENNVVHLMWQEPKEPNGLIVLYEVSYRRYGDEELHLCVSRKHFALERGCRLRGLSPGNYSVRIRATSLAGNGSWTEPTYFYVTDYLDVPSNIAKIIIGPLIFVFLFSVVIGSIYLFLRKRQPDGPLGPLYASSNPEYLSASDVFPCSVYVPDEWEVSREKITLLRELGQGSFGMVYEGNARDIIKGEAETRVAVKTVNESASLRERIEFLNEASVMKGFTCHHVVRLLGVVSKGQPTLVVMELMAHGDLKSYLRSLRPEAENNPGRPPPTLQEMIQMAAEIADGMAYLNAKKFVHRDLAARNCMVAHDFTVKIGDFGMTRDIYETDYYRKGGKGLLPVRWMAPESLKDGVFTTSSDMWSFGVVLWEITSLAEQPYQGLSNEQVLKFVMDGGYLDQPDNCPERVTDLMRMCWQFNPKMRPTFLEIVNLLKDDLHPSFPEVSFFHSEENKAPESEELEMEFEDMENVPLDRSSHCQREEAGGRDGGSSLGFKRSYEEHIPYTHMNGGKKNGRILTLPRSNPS
- Experiment Description: surface plasmon resonance (Biacore T200), IRβ immobilised on CM5
Measurement Label: pKd
Give bare numbers, as −log10 of the molar value.

Param item = CC1=NN(c2ccc(C(=O)O)cc2)C(=O)C1=Cc1ccc(-c2cc(C)c(C)cc2[N+](=O)[O-])o1 [C646] ; retrieve measured pKd. 5.36
